# system: T1, Merlin FERM domain (Merlin-FERM, residues 1-320) (human, UniProt P35240 1-320)
# T1 sequence (looked up): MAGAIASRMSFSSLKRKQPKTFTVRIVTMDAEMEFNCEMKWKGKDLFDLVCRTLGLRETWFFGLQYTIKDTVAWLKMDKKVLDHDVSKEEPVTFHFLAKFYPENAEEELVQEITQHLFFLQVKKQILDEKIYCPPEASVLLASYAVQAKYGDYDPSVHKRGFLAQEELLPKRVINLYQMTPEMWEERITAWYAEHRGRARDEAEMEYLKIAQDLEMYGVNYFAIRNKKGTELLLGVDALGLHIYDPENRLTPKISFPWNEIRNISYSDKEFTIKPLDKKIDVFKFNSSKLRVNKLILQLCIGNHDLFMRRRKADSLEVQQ
parameterMeasured: Kd

Sample Merlin-CTD-S518D (domain or fragment, human, UniProt P35240 507-595, looked up) FDFKDTDMKRLDMEIEKEKVEYMEKSKHLQEQLNELKTEIEALKLKERETALDILHNENSDRGGSSKHNTIKKLTLQSAKSRVAFFEEL — what was its Kd?
~4 µM
